- Tested on: NCI-H522 lung
- protocol.description: NCI tumour cell line growth inhibition, 48 h
Collected TGI values appear next to each entry.
observable: TGI

- molecule: "CS(=O)(=O)OCC1CCCCCCCCCCC12SCCCS2 (stereo not drawn)"
  observable: "TGI"
  measured.value: "> 100 µM"
- molecule: "OC(C1CCCCCCCCCC1)C(O)C1CCCCCCCCCC1 (stereo not drawn)"
  observable: "TGI"
  measured.value: "> 100 µM"
- molecule: "CN1C(=O)CCC1c1ccc2c(c1)oc(=O)n2C (stereo not drawn)"
  observable: "TGI"
  measured.value: "> 100 µM"

* * *

Collected TGI values appear next to each entry.
- System: MALME-3M melanoma
- protocol.description: NCI tumour cell line growth inhibition, 48 h

- molecule: "COc1cc(S(=O)(=O)Nc2ccc(-c3csc(N4C(=O)C(C)SC4c4ccccc4)n3)cc2)ccc1Cl (stereo not drawn)"
  TGI: "> 100 µM"
- molecule: "NC(=O)c1sc(-n2cnc3ccc(C(F)(F)F)cc32)cc1OCc1ccccc1Br"
  TGI: "> 25 µM"
- molecule: "N#CCc1nc2cc(C(F)(F)F)ccc2s1"
  TGI: "> 100 µM"

* * *

- Tested on: BT-549 breast
- protocol.description: NCI tumour cell line growth inhibition, 48 h
Please note: true applies when TGI is 7 µM or greater, and false applies otherwise.

- compound: "CC1C(C#N)(C#N)C(C#N)=C(N)C1(C)[N+](=O)[O-] (configuration not stated)"
  study.target: "BT-549 breast"
  class.assignment: "true"
- compound: "C=CCOCn1ccc(N)nc1=O"
  study.target: "BT-549 breast"
  class.assignment: "true"
- compound: "O=C1CCCCN1C(=O)c1ccc([N+](=O)[O-])cc1"
  study.target: "BT-549 breast"
  class.assignment: "true"
- compound: "Nc1nc(-c2ccc(Cl)cc2)cc(-c2ccc(Cl)cc2)c1-c1nc2ccccc2o1"
  study.target: "BT-549 breast"
  class.assignment: "true"
- compound: "OCCn1cc(-c2cnc3nnn(Cc4ccc5ncccc5c4)c3n2)cn1"
  study.target: "BT-549 breast"
  class.assignment: "true"
- compound: "CC(C)C[CH2][Ge]([CH2]CC(C)C)([CH2]CC(C)C)[CH2]CC(C)C"
  study.target: "BT-549 breast"
  class.assignment: "true"
- compound: "O=C(Nc1ccc(Nc2ccncc2)cc1)c1ccc(Nc2ccnc3ccc([N+](=O)[O-])cc23)cc1[N+](=O)[O-]"
  study.target: "BT-549 breast"
  class.assignment: "true"
- compound: "O=C1/C(=C/c2ccc(Cl)cc2)CCC1CN1CCOCC1 (configuration not stated)"
  study.target: "BT-549 breast"
  class.assignment: "true"
- compound: "CC(C)=CC(=O)N[C@@H]1CC2CCC3C(CC[C@@]4(C)C3CC[C@@H]4C(C)N(C)C)[C@@]2(C)C[C@@H]1O (some centres not stated)"
  study.target: "BT-549 breast"
  class.assignment: "true"
- compound: "C=C(C)[C@@H]1CC[C@]2(C(=O)O)CC[C@]3(C)[C@H](CC[C@@H]4[C@@]5(C)C/C(=C/c6cccc(I)c6)C(=O)C(C)(C)[C@@H]5CC[C@]43C)[C@@H]12"
  study.target: "BT-549 breast"
  class.assignment: "false"
- compound: "O=C(NO)c1ccc(Cn2c(=O)n(-c3ccccc3)c(=O)c3ccccc32)cc1"
  study.target: "BT-549 breast"
  class.assignment: "false"
- compound: "COc1ccc(C2=NNC(c3cc4cc(Br)ccc4nc3Cl)C2)cc1 (configuration not stated)"
  study.target: "BT-549 breast"
  class.assignment: "true"
- compound: "O=S1(=O)OCCCOS(=O)(=O)C1(Br)Br"
  study.target: "BT-549 breast"
  class.assignment: "true"
- compound: "CCC(=O)N1C(=O)C(CC)(CC)C(=O)N1C(=O)CC"
  study.target: "BT-549 breast"
  class.assignment: "true"
- compound: "O=C(CCN1CCCC1)Nc1ccc2c(NCCc3ccccc3)c3ccccc3nc2c1"
  study.target: "BT-549 breast"
  class.assignment: "false"
- compound: "CN(/N=C/c1ccc(Cl)cc1)C1=NCCCCN1"
  study.target: "BT-549 breast"
  class.assignment: "true"
- compound: "O=C1CCSC(=S)N1c1ccc(Br)c(Cl)c1"
  study.target: "BT-549 breast"
  class.assignment: "true"

Ref: PubChem BioAssay (NCI)
